biological target: Mannose-6-phosphate isomerase (Homo sapiens); experiment: MPI enzyme activity enhancement – biochemical, fluorescence intensity, near-Km mannose 6-phosphate, primary screen (AID 1214); details: purified human PMI, coupled resazurin fluorescence, 20 min; at 20 µM; hits give high values; 1 = vehicle control, 0 substrate-free wells
Screen size: about 190,000 compounds; about 10 (0.005%) were called active. A selection follows.
measurement-label: activation factor
Answers are plain numbers.

• OC1CSc2nc3ccccc3n2C1 (stereo not drawn) = 0.9

List the reported activation factor of each compound below.
1. N#C/C(C(=S)Nc1ccccc1)=C1/NN=C(N2CCOCC2)N1c1ccccc1
2. CC(C)NC(=S)Nc1cccc2cnccc12

1: 1; 2: 1
